The measured values listed here are drawn from ChEMBL document CHEMBL4190178.

experiment: Cmax in Sprague-Dawley rat prostate at 10 mg/kg, po administered as single dose by LC-MS/MS analysis; assay type: ADME, organism-based, Prostate gland; design: dose 10 mg/kg, route oral
READOUT_KIND: Cmax (ng/g)

• O=C(CN1CCN(c2ccc([N+](=O)[O-])cc2)CC1)N1CCN(c2ccc([N+](=O)[O-])cc2)CC1 = 2400

###

test: Cmax in Sprague-Dawley rat serum at 10 mg/kg, po administered as single dose by LC-MS/MS analysis; assay type: ADME, organism-based; design: dose 10 mg/kg, route oral
READOUT_KIND: Cmax (ng/mL)

- O=C(CN1CCN(c2ccc([N+](=O)[O-])cc2)CC1)N1CCN(c2ccc([N+](=O)[O-])cc2)CC1: 1100
